# system_tested: Carbonic anhydrase 9 (Homo sapiens)
pKi: −log10 of the molar value.
Please note: 1 applies when pKi is 8 or greater, and -1 applies otherwise.

Study these solved cases before continuing.
NS(=O)(=O)c1ccc(NC2=CC(c3ccccc3)N(c3ccc(S(N)(=O)=O)cc3)C2=O)cc1 (stereo not given)	-1
NS(=O)(=O)c1ccc(NC2=CC(c3ccc(Br)cc3)N(c3ccc(S(N)(=O)=O)cc3)C2=O)cc1 (stereo not given)	-1
COc1ccc(O)c(C2C=C(Nc3ccc(S(N)(=O)=O)cc3)C(=O)N2c2ccc(S(N)(=O)=O)cc2)c1 (stereo not given)	1
NS(=O)(=O)c1ccc(NC2=CC(c3ccc(C(F)(F)F)cc3)N(c3ccc(S(N)(=O)=O)cc3)C2=O)cc1 (stereo not given)	-1
NS(=O)(=O)c1ccc(NC2=CC(c3ccc(F)cc3)N(c3ccc(S(N)(=O)=O)cc3)C2=O)cc1 (stereo not given)	-1

API: above_or_equal(metric=pKi, cutoff=8) for item COc1cc(C2C=C(Nc3ccc(S(N)(=O)=O)cc3)C(=O)N2c2ccc(S(N)(=O)=O)cc2)cc(OC)c1O (stereo not given)
1

API: above_or_equal(metric=pKi, cutoff=8) for item NS(=O)(=O)c1ccc(NC2=CC(c3ccco3)N(c3ccc(S(N)(=O)=O)cc3)C2=O)cc1 (stereo not given)
-1

API: above_or_equal(metric=pKi, cutoff=8) for item CCCCOc1ccc(C2C=C(Nc3ccc(S(N)(=O)=O)cc3)C(=O)N2c2ccc(S(N)(=O)=O)cc2)cc1 (stereo not given)
1

API: above_or_equal(metric=pKi, cutoff=8) for item NS(=O)(=O)c1ccc(NC2=CC(/C=C/c3ccccc3)N(c3ccc(S(N)(=O)=O)cc3)C2=O)cc1 (stereo not given)
-1

###

# system_tested: Carbonic anhydrase 12 (Homo sapiens)
# Sequence (O43570 whole entry): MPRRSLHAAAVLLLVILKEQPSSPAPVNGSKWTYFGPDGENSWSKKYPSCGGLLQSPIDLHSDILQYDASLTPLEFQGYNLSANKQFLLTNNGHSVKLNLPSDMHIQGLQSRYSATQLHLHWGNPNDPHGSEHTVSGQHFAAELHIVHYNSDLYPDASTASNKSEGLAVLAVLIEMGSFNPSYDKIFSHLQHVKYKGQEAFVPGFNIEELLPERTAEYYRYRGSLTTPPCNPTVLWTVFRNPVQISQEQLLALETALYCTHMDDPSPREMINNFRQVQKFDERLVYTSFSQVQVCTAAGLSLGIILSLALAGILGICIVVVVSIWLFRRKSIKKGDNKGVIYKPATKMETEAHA
# test_method_notes: Inhibition of human carbonic anhydrase 12 assessed as inhibition constant incubated for 15 mins by phenol red based stopped-flow CO2 hydration assay
Strictly below 70 nM in Ki: yes. Otherwise: no.

Study these solved cases before continuing.
NS(=O)(=O)c1ccc(NC2=CC(c3ccc(Br)cc3)N(c3ccc(S(N)(=O)=O)cc3)C2=O)cc1 (configuration not stated)	no
COc1ccc(C2C=C(Nc3ccc(S(N)(=O)=O)cc3)C(=O)N2c2ccc(S(N)(=O)=O)cc2)cc1OC (configuration not stated)	yes
COc1ccc(C2C=C(Nc3ccc(S(N)(=O)=O)cc3)C(=O)N2c2ccc(S(N)(=O)=O)cc2)cc1O (configuration not stated)	yes

Is it true that Ki reported for CCCCc1ccc(C2C=C(Nc3ccc(S(N)(=O)=O)cc3)C(=O)N2c2ccc(S(N)(=O)=O)cc2)cc1 (configuration not stated) is less than 70 nM?
yes

Is it true that Ki reported for COc1cc(C2C=C(Nc3ccc(S(N)(=O)=O)cc3)C(=O)N2c2ccc(S(N)(=O)=O)cc2)cc(OC)c1O (configuration not stated) is less than 70 nM?
yes

Is it true that Ki reported for NS(=O)(=O)c1ccc(NC2=CC(c3cc(C(F)(F)F)cc(C(F)(F)F)c3)N(c3ccc(S(N)(=O)=O)cc3)C2=O)cc1 (configuration not stated) is less than 70 nM?
no

Is it true that Ki reported for NS(=O)(=O)c1ccc(NC2=CC(c3ccc(F)cc3)N(c3ccc(S(N)(=O)=O)cc3)C2=O)cc1 (configuration not stated) is less than 70 nM?
no
